Some compounds, each annotated with its measured inhibition at 0.5 µM.
experimental_target: human Cereblon WT GST-tagged protein (Homo sapiens, UniProt Q96SW2)
Construct: purchased CISBIO 64BDCRBNPEH
Sequence (Q96SW2 whole entry): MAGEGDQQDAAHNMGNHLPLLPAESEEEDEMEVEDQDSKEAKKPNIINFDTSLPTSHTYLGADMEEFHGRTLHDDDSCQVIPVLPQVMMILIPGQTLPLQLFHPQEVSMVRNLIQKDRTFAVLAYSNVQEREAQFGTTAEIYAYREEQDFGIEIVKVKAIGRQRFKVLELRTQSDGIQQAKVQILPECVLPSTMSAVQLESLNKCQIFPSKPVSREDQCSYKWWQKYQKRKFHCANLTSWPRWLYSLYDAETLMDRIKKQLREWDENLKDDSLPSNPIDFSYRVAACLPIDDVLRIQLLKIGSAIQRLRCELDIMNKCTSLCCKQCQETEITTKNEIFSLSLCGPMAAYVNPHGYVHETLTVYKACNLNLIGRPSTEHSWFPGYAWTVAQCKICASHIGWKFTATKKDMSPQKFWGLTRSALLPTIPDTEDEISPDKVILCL
method_description: CRBN binding, HTRF (CEREBLON BINDING kit)
run_parameters: Table II-2, CRBN binding screening, HTRF; at 0.5µM; read-out: Inhibition rate (%) at 0.5µM

# compound, inhibition at 0.5 µM
measured = [
    ("CN(C)C(=O)c1cc2cnc(Nc3ccc(N4CCN(Cc5ccc(C6CCC(=O)NC6=O)cn5)CC4)cn3)nc2n1C1CCCC1 (stereo not shown) [GT-07477]", "20 to 30%"),
    ("COc1cc(C(=O)NC2CCN(Cc3ccc(C4CCC(=O)NC4=O)cc3)CC2)c(F)cc1Nc1ncc(C(F)(F)F)c(Oc2cccc3c2C(=O)N(C)C3)n1 (stereo not shown) [GT-04034]", "53 to 60%"),
    ("COc1cc(N2CCN(Cc3ccc(C4CCC(=O)NC4=O)cc3)CC2)ccc1Nc1ncc(Cl)c(Nc2ccccc2P(C)(C)=O)n1 (stereo not shown) [GT-03781]", "40 to 53%"),
    ("Cn1cc(-c2cc(S(C)(=O)=O)ccc2OCc2cccc(NC3CCC(=O)NC3=O)c2)c2cc[nH]c2c1=O (stereo not shown) [GT-04641]", "20 to 30%"),
    ("CN(C)C(=O)c1cc2cnc(Nc3ccc(N4CCN(Cc5cc(C6CCC(=O)NC6=O)cnc5F)CC4)cn3)nc2n1C1CCCC1 (stereo not shown) [GT-07563]", "20 to 30%"),
    ("COc1cc2nn(C3CCN(Cc4ccc(C5CCC(=O)NC5=O)cn4)CC3)cc2cc1NC(=O)c1cccc(C(F)(F)F)c1 (stereo not shown) [GT-07417]", "30 to 40%"),
    ("CC(=O)c1c(C)c2cnc(Nc3ccc(N4CCN(Cc5ccc(C6CCC(=O)NC6=O)cn5)CC4)cn3)nc2n(C2CCCC2)c1=O (stereo not shown) [GT-07483]", "53 to 60%"),
    ("CN(Cc1cc(N2CCC(=O)NC2=O)cnc1F)C1CCN(c2ccc(-c3cc(F)c4c(c3)C(=O)N(C(C(=O)Nc3nccs3)c3ncn5c3CCC5)C4)cc2)CC1 (stereo not shown) [GT-07823]", "53 to 60%"),
    ("COc1cc(N2CCC(N(C)Cc3ccc(C4CCC(=O)NC4=O)c(F)c3)CC2)ccc1Nc1ncc(Cl)c(Nc2ccccc2P(C)(C)=O)n1 (stereo not shown) [GT-03604]", "20 to 30%"),
    ("COc1cc2nn(C3CCN(Cc4cc(C5CCC(=O)NC5=O)cnc4F)CC3)cc2cc1NC(=O)c1cccc(C(F)(F)F)n1 (stereo not shown) [GT-07549]", "40 to 53%"),
    ("CNC(=O)c1ccccc1Nc1cc(Nc2cc(C)c(N3CCC(N(C)Cc4ccc(C5CCC(=O)NC5=O)c(F)c4)CC3)cc2OC(C)C)ncc1C(F)(F)F (stereo not shown) [GT-04095]", "20 to 30%"),
    ("CC(C)(O)c1cc2nn(C3CCN(Cc4cc(N5CCC(=O)NC5=O)cnc4F)CC3)cc2cc1NC(=O)c1cccc(C(F)(F)F)n1 [GT-07783]", "30 to 40%"),
    ("CN(C)C(=O)c1cc2cnc(Nc3ccc(N4CCN(Cc5cncc(N6CCC(=O)NC6=O)c5)CC4)cn3)nc2n1C1CCCC1 [GT-07476]", "30 to 40%"),
]

Ref: patent EP4678638A1
